- TARGET OF ASSAY: VEGFR-2 (Homo sapiens, UniProt P35968)
- Construct: Effects of compounds 5e and 5a on VEGFR-2 and HER2 (µM) in MCF-7 cells compared to control; endogenous in cells; host or cells: MCF-7
- Sequence (P35968 20-1356): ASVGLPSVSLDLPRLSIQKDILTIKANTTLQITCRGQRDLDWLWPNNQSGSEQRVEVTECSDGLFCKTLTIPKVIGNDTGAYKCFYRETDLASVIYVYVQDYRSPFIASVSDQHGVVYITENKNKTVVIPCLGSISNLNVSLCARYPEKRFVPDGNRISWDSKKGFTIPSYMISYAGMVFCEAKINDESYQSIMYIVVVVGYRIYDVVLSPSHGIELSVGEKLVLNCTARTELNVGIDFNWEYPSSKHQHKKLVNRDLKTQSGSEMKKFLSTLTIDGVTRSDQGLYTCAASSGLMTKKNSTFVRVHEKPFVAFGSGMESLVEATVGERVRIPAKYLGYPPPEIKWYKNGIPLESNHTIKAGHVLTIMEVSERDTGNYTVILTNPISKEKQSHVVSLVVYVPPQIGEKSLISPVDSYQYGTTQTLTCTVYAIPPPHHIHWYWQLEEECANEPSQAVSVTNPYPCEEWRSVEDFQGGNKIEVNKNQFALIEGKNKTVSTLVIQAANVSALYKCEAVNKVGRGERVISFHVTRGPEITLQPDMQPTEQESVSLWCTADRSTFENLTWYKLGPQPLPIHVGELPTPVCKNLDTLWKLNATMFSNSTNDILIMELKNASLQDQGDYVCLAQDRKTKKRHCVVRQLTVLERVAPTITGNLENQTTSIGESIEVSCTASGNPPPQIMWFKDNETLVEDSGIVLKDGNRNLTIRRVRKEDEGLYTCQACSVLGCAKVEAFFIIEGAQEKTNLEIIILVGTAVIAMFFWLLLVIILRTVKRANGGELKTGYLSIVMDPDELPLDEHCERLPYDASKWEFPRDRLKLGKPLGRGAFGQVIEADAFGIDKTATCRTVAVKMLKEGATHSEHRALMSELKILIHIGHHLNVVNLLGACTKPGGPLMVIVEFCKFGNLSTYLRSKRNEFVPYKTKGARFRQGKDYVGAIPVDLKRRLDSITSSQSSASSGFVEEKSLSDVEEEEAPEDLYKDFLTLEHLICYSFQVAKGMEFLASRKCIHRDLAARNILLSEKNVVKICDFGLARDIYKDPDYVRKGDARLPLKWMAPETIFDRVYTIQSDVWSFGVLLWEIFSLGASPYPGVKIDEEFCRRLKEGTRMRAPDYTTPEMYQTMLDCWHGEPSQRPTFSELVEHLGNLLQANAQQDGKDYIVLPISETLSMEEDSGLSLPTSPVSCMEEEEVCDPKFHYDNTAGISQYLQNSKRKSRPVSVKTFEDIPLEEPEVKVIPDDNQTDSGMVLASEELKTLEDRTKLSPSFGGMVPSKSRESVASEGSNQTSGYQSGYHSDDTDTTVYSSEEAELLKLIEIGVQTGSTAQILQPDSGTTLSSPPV
- METHOD NOTES: In vitro VEGFR-2 inhibition assay
- Assay type: biochemical
- TEST PARAMETERS: mean of three replicates ± S.D.
RESULT TYPE: IC50 (µM)

N#Cc1c(-c2ccc(Cl)cc2Cl)c(C#N)c(=O)n(-c2cccc(C(F)(F)F)c2)c1N : 0.124
N#Cc1c(-c2ccccc2)c(C#N)c(=O)n(-c2cccc(C(F)(F)F)c2)c1N : 0.217
